For each entry below, report its LD50 value.
Assay: Acute toxicity assessed intravenously in mice (method of Miller and Tainter)
Conditions: mouse, in vivo, iv, read-out: Acute toxicity LD 50
Give bare numbers, in mg/kg.

Below are worked cases with known answers.
compound structure string: c1cc(N2CCNCC2)c2cc[nH]c2c1
LD50, mg/kg: 35
//
compound structure string: c1cc(N2CCNCC2)c2nn[nH]c2c1
LD50, mg/kg: 96
//
compound structure string: CCOC(=O)N1CCN(c2cccc3[nH]cnc23)CC1
LD50, mg/kg: 160
//
compound structure string: c1cc(N2CCNCC2)c2[nH]ccc2c1
LD50, mg/kg: 70
//
compound structure string: c1cc(N2CCNCC2)c2nc[nH]c2c1
LD50, mg/kg: 125
//
compound structure string: CCOC(=O)N1CCN(c2cccc3[nH]c(C)nc23)CC1
LD50, mg/kg: 200

Give me LD50 for each of these molecules, listed below.
1. CC(C)COC(=O)N1CCN(c2cccc3[nH]cnc23)CC1
2. CCOC(=O)C1CCN(c2cccc3[nH]cnc23)CC1

[195, 185]

----------
Assay: Acute toxicity assessed intravenously in mice (method of Miller and Tainter)
Conditions: mouse, in vivo, po, 1000 mg/kg, p.o., read-out: Acute toxicity (mice), % at 1000 (p.o.)
Please respond with reported mortality for every item in the list.
Numbers only, in %.

compound structure string: CSc1nnc(C(=O)N2CCN(c3cccc4[nH]cnc34)CC2)o1
mortality / %: 0

Now for the compound whose mortality we want.
Report mortality for c1ccc(SN2CCN(c3cccc4[nH]cnc34)CC2)cc1 please.
0
